molecular target: Glucose transporter (Leishmania mexicana) (UniProt O61059); experiment: ST_JUDE_LEISH: Cytotoxicity at 2uM final concentration against transgenic Leishmania Mexicana promastigotes LmGT2 that are glucose transport deficient and complemented with the L. Mexicana glucose transporter 2. Activity is measured by DNA content using SYBR green in vitro; assay type: functional
Please go through the items and note down their inhibition.
The answer should read as a number with its unit following.

What the record says about COc1ccc2nccc([C@@H](O)CN3CCC(NCc4cc5c(cc4F)SCC(=O)N5)CC3)c2n1 : inhibition is 8.6%

What the record says about c1cc(CNc2ncc(-c3ccsc3)c(-c3nccs3)n2)ccn1 : inhibition is 6.45%

What the record says about CN(C)Cc1ccc(CNC2CCN(Cc3ccccc3Cl)CC2)cc1 : inhibition is 13.4%

What the record says about COc1ccc(NC(=O)/C=C/c2ccc(Oc3ccccc3Cl)c([N+](=O)[O-])c2)cc1OCCN(C(C)C)C(C)C : inhibition is -1.59%

What the record says about Cc1ccc(C)c(NC(=O)Nc2ccc(C)c(-c3ccc(C(=O)Nc4ccncc4)cc3)c2)c1 : inhibition is 2.82%

What the record says about Cc1ccc(CN2CCCN(Cc3cccc(NC(=O)c4cc5ccccc5s4)c3)CC2)cc1 : inhibition is -2.83%

What the record says about CCCCNCc1ccc(-c2nc(CN(CCCN3CCN(C)CC3)C(=O)Nc3cccc(Cl)c3)cs2)cc1 : inhibition is 5.61%

What the record says about c1ccc(-c2csc(Nc3nc4cc5c(cc4s3)OCO5)n2)nc1 : inhibition is -1.72%

What the record says about FC(F)(F)c1cccc(-c2cc(NCCCn3ccnc3)nc(-c3ccncc3)n2)c1 : inhibition is -0.33%

What the record says about CCOC(=O)C1=C(C)N=c2sc(=Cc3ccccc3O)c(=O)n2C1c1ccc(OC)c2ccccc12 (stereo not given) : inhibition is -1.57%

What the record says about COc1cccc(NC(=O)c2ccc(NCCCN3CC(C)CC(C)C3)c([N+](=O)[O-])c2)c1 (stereo not given) : inhibition is 3.43%

What the record says about CC(=O)N1N=C(c2ccc(Cl)cc2)Sc2c1nc(-c1ccccc1)n2C(C)=O : inhibition is 2.48%

What the record says about N#Cc1ccc2c(c1)CCN(CCC1CCC(NC(=O)c3cccc(-c4ccc(F)cc4)c3)CC1)CC2 (stereo not given) : inhibition is 5.8%

What the record says about COCn1ccc2c3c(N)nc(N)nc3ccc21 : inhibition is 2.32%

What the record says about COc1ccc(CNCc2cccc(-c3ccc(-c4nc5ccccc5[nH]4)cc3)c2)cc1 : inhibition is 3.52%

What the record says about O=C(NCCNc1noc(-c2sccc2Br)n1)c1ccc(Cl)cc1 : inhibition is -0.91%

What the record says about CO/C(=C\C=C\c1cc2cc(Cl)c(Cl)cc2[nH]1)C(=O)NC1CC2CCCC(C1)N2C (stereo not given) : inhibition is 5.12%

What the record says about CCc1cn(CCOC)c2ccc(C(=O)N[C@@H](Cc3ccccc3)[C@H](O)CNC(C)(C)CCCC(C)C)cc12 : inhibition is 1.51%

What the record says about COc1ccc(-c2ccc(NC(=O)c3ccc(Cl)cc3)cc2)cc1CN(C)CCN(C)C : inhibition is 2.75%

What the record says about COc1cc(-c2nc(-c3ccc([N+](=O)[O-])cc3)c(-c3ccccc3)[nH]2)cc(OC)c1O : inhibition is 5.26%
